Please provide measured IC50 for the entries that follow.
# System: MDA-MB-231
# assay.method.text: Cytotoxicity against human MDA-MB-231 cells after 48 hrs by MTT assay
# Assay type: functional, cell-based
# condition.label: MDA-MB-231, 48 h
Give bare numbers, in nM.

- smiles.str: "CC[C@H](C)[C@@H](CN1Cc2cc(OCC(=O)NO)ccc2C[C@H]1C(=O)Nc1ccc(OC)cc1)NC(=O)OC(C)(C)C"
  u: "nM"
  IC50: 2200
- smiles.str: "COc1ccc(NC(=O)[C@@H]2Cc3ccc(OCC(=O)NO)cc3CN2C(=O)[C@H](Cc2ccccc2)NC(=O)OC(C)(C)C)cc1"
  u: "nM"
  IC50: 1290
- smiles.str: "COc1ccc(NC(=O)[C@@H]2Cc3ccc(OCC(=O)NO)cc3CN2C(=O)[C@@H](NC(=O)OC(C)(C)C)C(C)C)cc1"
  u: "nM"
  IC50: 1580

Please look at the items below and tell me IC50 for each one, in order.
1. COc1ccc(NC(=O)[C@@H]2Cc3ccc(OCC(=O)NO)cc3CN2C(=O)CCCc2ccccc2)cc1
2. CC[C@H](C)[C@@H](CN1Cc2cc(OCC(=O)NO)ccc2C[C@H]1C(=O)Nc1ccc(OC)cc1)NC(=O)CC(C)(C)C

Response:
1. 2770
2. 2540
